Source of measurements: patent US20240385190A1

Consider the following binders and their measured absorbance readings.
Molecular target: human EphA4 ligand binding domain-MBP-His protein (human, UniProt P54764 20-209; P0AEX9 29-392 = MBP)
Assay: ELISA
Method: For the anti-human EphA4 monoclonal antibodies produced in Example 1, evaluation of binding activity to various EphA4 was performed according to the following steps. Mouse anti-6-His antibodies (R&D) were coated on the wells of a 96-well plate (Thermo […]). […] Equal amounts of quenching solution (2 N H₂SO₄, FUJIFILM Wako) were added to the wells, and absorbance at 450 nm and 650 nm were read with a microplate reader (Thermo […]).
quantityMeasured: absorbance

| binder | result |
| --- | --- |
| KPEP11_12 (antibody, V domains shown, Rabbit IgG; also called anti-human EphA4 rabbit monoclonal antibody KPEP11_12) VH: QSLEESGGRLVTPGTPLTLTCTVSGFSLSSYHMSWVRQAPGKGLEWIGIIYRSGNTYYANWAKGRFTISKTSTTVDLKITSPTTEDTATYFCARESSTFYGMDLWGPGTLVTVSS VL: YVMMTQTPSSVSAAVGGTVTINCQASQSVYGNNELAWYQQKPGQRPKLLIYRASTLASGVPSRFKGSGSGTEFTLTISDLECADAATYYCLGYKSDDYTFGGGTKVEIKG | 0.283 |
| KPEP11_18 (antibody, V domains shown, Rabbit IgG/kappa; Used coated or HRP-labeled in the sandwich ELISAs; also called anti-human EphA4 rabbit monoclonal antibody KPEP11_18; HRP-labeled KPEP11_18) VH: QSLEESGGRLVTPGTPLTLTCTISGFSLSSFYINWVRQAPGRGLEWIGIIYPDIDATDYASWVKGRFTISKTSTTVDLKITSPTTEDTATYFCARSDVDYYTTRLDLWGQGTLVTVSS VL: DPMMTQTASPVSAAVGGTVSISCQSNKSVYSNWLSWFQQKPGQPPKLLIYGASTLASGVPSRFKGSGSGTQFTLTVSDVQCDDAATYFCLGGYRDNSDNAFGGGTEVVVKG | 1.43 |
| KPEP11_01 (antibody, V domains shown, also called anti-human EphA4 rabbit monoclonal antibody KPEP11_01) VH: QSVEESGGRLVTPGTPLTLTCTVSGFSLSSYHMSWVRQAPGKGLEWIGIIYRSGNTYSANWAKGRFTISKTSTTVDLKITSPTTEDTATYFCARESSTFYGMDLWGPGTLVTVSS VL: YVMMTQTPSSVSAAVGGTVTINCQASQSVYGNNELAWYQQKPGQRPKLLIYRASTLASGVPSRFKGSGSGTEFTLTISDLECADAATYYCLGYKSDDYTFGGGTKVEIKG | 0.236 |
| KPEP11_13 (antibody, V domains shown, Rabbit IgG; also called anti-human EphA4 rabbit monoclonal antibody KPEP11_13) VH: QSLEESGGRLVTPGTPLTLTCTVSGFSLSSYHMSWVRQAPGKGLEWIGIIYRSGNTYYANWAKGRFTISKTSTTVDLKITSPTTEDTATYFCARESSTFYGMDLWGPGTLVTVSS VL: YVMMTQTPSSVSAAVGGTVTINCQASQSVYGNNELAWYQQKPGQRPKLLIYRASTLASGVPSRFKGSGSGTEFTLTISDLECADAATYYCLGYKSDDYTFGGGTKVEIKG | 0.348 |
